species on record: Rattus norvegicus; experiment: Open TG-GATES - Regimen: Daily Repeat; format: toxicity, organism-based, Sprague-Dawley; design: regimen Daily Repeat, gender Male, age 6 weeks; details: in vivo, po, 300 mg/kg, […], tissue Blood, route gavage, dose level Middle, time 7 day
observable: Lym (%)
Give the value, in units of %, as a plain number.

Reference set (3 entries):
>>> print(df.to_string())
                                   molecule  measured
0                   O=C(O)c1ccccc1Nc1ccccc1      80.6
1  CCCCNC(=O)NS(=O)(=O)c1ccc(C)cc1 [TOLBUTAMIDE]      81.6
2  CC(=O)[C@@]1(O)CC[C@H]2[C@@H]3C=C(Cl)C4=CC(=O)CC[C@]4(C)[C@H]3CC[C@@]21C        86

Switching to the query record.
# input For CC(S)C(=O)NCC(=O)O (centres undefined) , what is its reported Lym?
# output 77.6
